- assay-procedure: Viability Counterscreen for CMV-Luciferase Assay of Inhibitors of ATXN expression; note: nearly all actives have a fitted effect of over 55% in size
- measurement-context: HEK-293 CMV-luciferase cells viability, protease fluorescence, 24 h
- Text: PI: Daniel Scoles Ph.D. University of Utah School of Medicine, Salt Lake City, Utah MLPCN Grant: NS073009 Spinocerebellar ataxia type 2 (SCA2) is a multisystem neurodegenerative disease caused by a dominantly acting mutation leading to expansion of a polyQ domain in the ataxin-2 protein (ATXN2). SCA2 patients develop progressive ataxia and later lose function in other neuronal systems. […] Here we describe a 5-7 dose quantitative high thoroughput screen (qHTS) for compounds lowering ATXN2 expression. […]
Screen size: about 2,100 compounds; about 320 (15%) were called active. About 52% were inconclusive and are not listed. Calls come from the whole dose curve; as a rule, active = well fitted cell-killing curve with a large enough effect; inconclusive = small, poorly fitted or top-dose-only effect, or effect the other way; inactive = flat fitted curve, though single readings scatter. This is one part of the list.
Your reply should match one of these outcome classes. yes (1) for active, no (0) for inactive

Known results for compounds:
* COc1cccc(-c2nn(C)c3sc(C(=O)NCCCN(C)Cc4ccccc4)cc23)c1 | no (0)
* CCC(C)(C)c1ccc(Oc2ccc(N)cc2)cc1 | no (0)
* OCCNc1c2ccccc2nc2ccccc12 | no (0)

Record request — test call for `CCCC(=O)Nc1c(C(=O)OCC)[nH]c2ccccc12`
no (0)

And `COc1cc(N)ccc1Nc1c2ccccc2nc2ccccc12` ?
yes (1)

Also check `Cc1ccc(NC(=O)C2CCN(S(=O)(=O)c3ccc(N4CCCC4=O)cc3)CC2)cc1Cl`
no (0)

Ok, now `Cc1cccc(N2CCN(S(=O)(=O)c3ccc4c(c3)C(C)(C)C(=O)N4C)CC2)c1C`
no (0)

What do we get for `Cc1ccnc(NC(=O)C2CCN(S(=O)(=O)c3c(C)c(C)cc(C)c3C)CC2)c1` ?
yes (1)

What about `Cn1nnnc1Sc1ncnc2scc(-c3cccs3)c12` ?
yes (1)

Continue with CC1=CC(C)(C)N2C(=O)C3(SCC(=O)N3c3ccc(F)cc3)c3cc(C)cc1c32 (configuration not stated)
no (0)

What would you report for `CN1OC[C@@H]2CN[C@H](c3ccc(-c4cc5ccccc5o4)cc3)C[C@@H]21` ?
no (0)

Another: `Cc1ccccc1N=Nc1ccc(O)c2ncccc12`
yes (1)

* * *

- assay-procedure: Viability Counterscreen for CMV-Luciferase Assay of Inhibitors of ATXN expression; note: nearly all actives have a fitted effect of over 55% in size
- measurement-context: HEK-293 CMV-luciferase cells viability, protease fluorescence, 24 h
About 320 (15%) of roughly 2,100 compounds were called active. Roughly 52% stayed inconclusive and do not appear here. Calls come from the whole dose curve; as a rule, active = well fitted cell-killing curve with a large enough effect; inconclusive = small, poorly fitted or top-dose-only effect, or effect the other way; inactive = flat fitted curve, though single readings scatter. The list shows a part of the results.
In this exercise, the only acceptable responses are active, inactive

- O=C(c1cccc(Cl)c1)c1nn(-c2ccccc2)c(=O)cc1C(F)(F)F: active
- CCN(CC)c1ccc(/C=C/c2cccc[n+]2C)c(OC)c1: active

Recorded call for `CCN(CC)c1ccc(C(=O)N/N=C/c2ccccc2OC(F)F)cc1` ?
inactive

Another compound to look at: `O=c1oc2ccccc2c(O)c1Cc1cc(Cl)c2cccnc2c1O`
inactive

* * *

- assay-procedure: Viability Counterscreen for CMV-Luciferase Assay of Inhibitors of ATXN expression; note: nearly all actives have a fitted effect of over 55% in size
- measurement-context: HEK-293 CMV-luciferase cells viability, protease fluorescence, 24 h
The whole screen tested about 2,100 compounds, of which about 320 (15%) were called active. Inconclusive results (about 52%) are left out. The call rests on the fitted dose curve; in most records, active means well fitted cell-killing curve with a large enough effect; inconclusive means small, poorly fitted or top-dose-only effect, or effect the other way; inactive means flat fitted curve, though single readings scatter. The list shows a part of the results.
Returns: one label drawn from active, inactive

* Cc1cc(C)c2nc(NNC(=O)c3ccc(S(=O)(=O)N4CC(C)CC(C)C4)cc3)sc2c1 (stereo unspecified) | inactive
* CC(C)C(=O)Nc1ccc(C(=O)N/N=C/c2cc(Br)cc(Br)c2O)cc1 | inactive
* C=CCNc1oc(-c2ccc(Cl)cc2)nc1C#N | inactive
* COc1cc([N+](=O)[O-])cc(/C=N/NC(=O)c2ccc(NC(=O)c3ccc(C)cc3)cc2)c1O | active
* C=CCc1cccc(/C=N/NC(=O)CCCNc2ccc(C)cc2)c1O | active

For `CC(C)Nc1nc(-c2ccccn2)nc(-c2ccccc2)c1C#N` , what call appears in the results of this test?
inactive

Further, for `CCN(CC)c1nc(-c2ccccn2)nc(-c2ccccc2)c1C#N` ?
active
